Numbers sourced from patent US11987582B2.

# Assay Remarks: PK parameters after bid (twice a day) administration
# Format: in vivo
# Condition Context: in vivo, 5 mg/kg PO (10 mg/kg/day), read-out: AUC(12-24 h)
Endpoint Name: AUC (µM·h)

- Compound: "CN1CCN(Cc2ccc(-c3cnc(N4CCOC(Cn5nnc6ncc(-c7cnn(C)c7)nc65)C4)nc3)cc2)CC1.O=C(O)/C=C\\C(=O)O (centres unmarked) [Chemical Formula 2]"
  Value: 3.99
- Compound: "CN1CCN(Cc2ccc(-c3cnc(N4CCOC(Cn5nnc6ncc(-c7cnn(C)c7)nc65)C4)nc3)cc2)CC1 (centres unmarked) [Chemical Formula 1]"
  Value: 2.45

----------
# Assay Remarks: thermodynamic solubility in formulation vehicles (phosphate buffer pH 7.4 with excipients)
# Assay type: physicochemical
# Condition Context: PBS formulation vehicle with 20% TPGS, pH 7.4, aqueous with cosolvent or surfactant or cyclodextrin, thermodynamic from solid; PBS vehicle containing 20% TPGS, 24 hours at room temperature
Endpoint Name: solubility at 24 h

- Molecule: "CN1CCN(Cc2ccc(-c3cnc(N4CCOC(Cn5nnc6ncc(-c7cnn(C)c7)nc65)C4)nc3)cc2)CC1 (stereo not shown)"
  Endpoint Name: "solubility at 24 h"
  Value: "≥ 1000 µg/mL"

----------
# Assay Remarks: PK parameters in plasma after single administration
# Format: in vivo, Wistar rats
# Condition Context: Wistar, rat, plasma, 5 mg/kg PO
Listed here: items and their measured AUC(0-t).
Endpoint Name: AUC(0-t) (µM·h)

- Molecule: "CN1CCN(Cc2ccc(-c3cnc(N4CCOC(Cn5nnc6ncc(-c7cnn(C)c7)nc65)C4)nc3)cc2)CC1 (centres unmarked) [Chemical Formula 1]"
  Value: 2.75
- Molecule: "CN1CCN(Cc2ccc(-c3cnc(N4CCOC(Cn5nnc6ncc(-c7cnn(C)c7)nc65)C4)nc3)cc2)CC1.O=C(O)/C=C\\C(=O)O (centres unmarked) [Chemical Formula 2]"
  Value: 1.73

----------
compounds and their reported AUC(0-t)
# Assay Remarks: PK parameters after bid (twice a day) administration
# Assay type: in vivo
# Condition Context: in vivo, po, 5 mg/kg, 5 mg/kg PO (10 mg/kg/day), read-out: AUClast

- Compound: "CN1CCN(Cc2ccc(-c3cnc(N4CCOC(Cn5nnc6ncc(-c7cnn(C)c7)nc65)C4)nc3)cc2)CC1.O=C(O)/C=C\\C(=O)O (centres unmarked) [Chemical Formula 2]"
  Value Unit: "µM·h"
  AUC(0-t): 7.42
- Compound: "CN1CCN(Cc2ccc(-c3cnc(N4CCOC(Cn5nnc6ncc(-c7cnn(C)c7)nc65)C4)nc3)cc2)CC1 (centres unmarked) [Chemical Formula 1]"
  Value Unit: "µM·h"
  AUC(0-t): 4.88

----------
# Assay Remarks: PK parameters after bid (twice a day) administration
# Format: in vivo
# Condition Context: in vivo, 5 mg/kg IV (10 mg/kg/day), read-out: AUC(12-24 h)

- Compound: "CN1CCN(Cc2ccc(-c3cnc(N4CCOC(Cn5nnc6ncc(-c7cnn(C)c7)nc65)C4)nc3)cc2)CC1 (centres unmarked)"
  Value Unit: "µM·h"
  AUC: 7.38
- Compound: "CN1CCN(Cc2ccc(-c3cnc(N4CCOC(Cn5nnc6ncc(-c7cnn(C)c7)nc65)C4)nc3)cc2)CC1.O=C(O)/C=C\\C(=O)O (centres unmarked)"
  Value Unit: "µM·h"
  AUC: 7.34

----------
# Assay Remarks: PK parameters in plasma after single administration
# Format: in vivo, Wistar rats
# Condition Context: Wistar, rat, plasma, 20 mg/kg PO

- Molecule: "CN1CCN(Cc2ccc(-c3cnc(N4CCOC(Cn5nnc6ncc(-c7cnn(C)c7)nc65)C4)nc3)cc2)CC1 (centres unmarked)"
  Value Unit: "h"
  Tmax: 4
